The reported measurements were obtained from patent US7531554B2.

# Experimental Target: HIV integrase (Human immunodeficiency virus type 1 group M subtype B, UniProt P12497, F1332H)
# Construct: HIV integrase full length gene (J. Virol., 67, 425-437 (1993)) in which phenylalanine at codon 185 was substituted by histidine; made in house; host or cells: Escherichia coli BL21(DE3)
# Method Summary: Determination of enzyme (HIV integrase) inhibitory activity
# Assay type: biochemical
# Test Conditions: recombinant integrase protein (F185H), donor DNA/target DNA, absorbance at 450 nm
Listed here are molecules together with their documented IC50.
Quantity Name: IC50 (nM)

>>> df
                                smiles_repr  result_value
0  CNS(=O)(=O)COc1cc2c(cc1Cc1cccc(Cl)c1F)c(=O)c(C(=O)O)cn2[C@H](CO)C(C)C           4.7
1  CC(C)[C@@H](CO)n1cc(C(=O)O)c(=O)c2cc(Cc3cccc(Cl)c3F)c(OCCCCN(C)C)cc21             5
2  CC(C)[C@@H](CO)n1cc(C(=O)O)c(=O)c2cc(Cc3cccc(Cl)c3F)c(O[C@H]3CCOC3)cc21           6.6
3  CC(C)[C@@H](CO)n1cc(C(=O)O)c(=O)c2cc(Cc3cccc(Cl)c3F)c(N3CC[C@@H](O)C3)cc21            27
